- Protocol Text: Plasma pharmacokinetics after a single oral dose
- Format: in vivo
- Details: human
Reported Property: Tmax

Enquiry: Returns the measured Tmax for the input compound. Input: `COc1ccccc1[C@H](Cn1c(=O)n(C(C)(C)C(=O)O)c(=O)c2c(C)c(-c3ncco3)sc21)OC1CCOCC1`
Return: 1 to 2 h

---

- Protocol Text: Plasma pharmacokinetics after a single oral dose
- Assay type: in vivo
- Details: human, 20 mg
Reported Property: concentration at 2 h

Enquiry: Returns the measured concentration at 2 h for the input compound. Input: `COc1ccccc1[C@H](Cn1c(=O)n(C(C)(C)C(=O)O)c(=O)c2c(C)c(-c3ncco3)sc21)OC1CCOCC1`
Return: 5.7 to 23.5 ng/mL
